The values you see were collected from patent US10626144B2.

# System: Escherichia coli ATCC 25922
# assay.comment: MIC, broth microdilution (CLSI), reference strain
# test.conditions: CAMHB
Square brackets hold non-standard residues; d marks the D form. Peptide text beside a SMILES is read from it. * marks the point of attachment. Phe(3,4-(OMe)2) = COc1ccc(C[C@H](N)C(=O)O)cc1OC; Phe(3-CONH2) = NC(=O)c1cccc(C[C@H](N)C(=O)O)c1; Dab(3S-OH) = NC[C@H](O)[C@H](N)C(=O)O; ΔZArg = N=C(N)NCC/C=C(\N)C(=O)O; aThr = C[C@H](O)[C@H](N)C(=O)O; dOrn = NCCC[C@@H](N)C(=O)O; Orn = NCCC[C@H](N)C(=O)O; NH(CH2)4NH2 = NCCCCN*
measured.quantity: Ec: MIC Escherichia coli ATCC 25922

compound="C[C@H](NC(=O)[C@@H](NC(=O)[C@@H](N)CCCCN)[C@@H](O)CN)C(=O)NCC(=O)N[C@H](CCCN)C(=O)N1CCC[C@H]1C(=O)N[C@@H](Cc1cnc[nH]1)C(=O)N[C@@H](CCCN)C(=O)N[C@H](CCCNC(=N)N)C(N)=O [24.128] (H-K[Dab(3S-OH)]AG[dOrn]PH[Orn][dR]-NH2)" result="− (>32 μg/mL)"
compound="NCCCCNC(=O)[C@H](CCCCN)NC(=O)[C@@H](CCCCN)NC(=O)[C@H](CCCCN)NC(=O)[C@H](Cc1cnc[nH]1)NC(=O)[C@@H]1CCCN1C(=O)[C@@H](CCCN)NC(=O)CNC(=O)[C@@H](NC(=O)[C@@H](NC(=O)[C@@H](N)CCCCN)[C@@H](O)CN)[C@@H](O)CN [22.21] (H-K[Dab(3S-OH)][Dab(3S-OH)]G[dOrn]PHK[dK]K-{NH(CH2)4NH2})" result="− (>32 μg/mL)"
compound="C[C@H](NC(=O)[C@@H](NC(=O)[C@@H](N)CCCCN)[C@@H](O)CN)C(=O)NCC(=O)N[C@H](CCCN)C(=O)N1CCC[C@H]1C(=O)N[C@@H](Cc1cccc(C(N)=O)c1)C(=O)N[C@@H](CCCCN)C(=O)N/C(=C\\CCNC(=N)N)C(=O)O [24.90] (H-K[Dab(3S-OH)]AG[dOrn]P[Phe(3-CONH2)]K[ΔZArg]-OH)" result="++ (≤8 μg/mL)"
compound="COc1ccc(C[C@H](NC(=O)[C@@H]2CCCN2C(=O)[C@@H](CCCN)NC(=O)CNC(=O)[C@@H](NC(=O)[C@@H](NC(=O)[C@@H](N)CCCCN)[C@@H](O)CN)[C@@H](O)CN)C(=O)N[C@@H](CCCCN)C(=O)N/C(=C\\CCNC(=N)N)C(=O)O)cc1OC [22.34] (H-K[Dab(3S-OH)][Dab(3S-OH)]G[dOrn]P[Phe(3,4-(OMe)2)]K[ΔZArg]-OH)" result="++ (≤8 μg/mL)"

Query C[C@H](O)[C@H](NC(=O)[C@@H](NC(=O)[C@@H](N)CCCCN)[C@@H](O)CN)C(=O)NCC(=O)N[C@H](CCCN)C(=O)N1CCC[C@H]1C(=O)N[C@@H](Cc1cnc[nH]1)C(=O)N[C@@H](CCCCN)C(=O)N/C(=C\CCNC(=N)N)C(=O)N[C@@H](CCCCN)C(=O)NCCCCN [25.1] (H-K[Dab(3S-OH)][aThr]G[dOrn]PHK[ΔZArg]K-{NH(CH2)4NH2}) yields Ec: MIC Escherichia coli ATCC 25922 of ++ (≤8 μg/mL)

----------
# Tested on: Escherichia coli ATCC 25922
# assay.comment: MIC, broth microdilution (CLSI), reference strain
# test.conditions: CAMHB
Square brackets hold non-standard residues; d marks the D form. Peptide text beside a SMILES is read from it. * marks the point of attachment. Dab(3S-OH) = NC[C@H](O)[C@H](N)C(=O)O; ΔZArg = N=C(N)NCC/C=C(\N)C(=O)O; AllylGly = C=CC[C@H](N)C(=O)O; dOrn = NCCC[C@@H](N)C(=O)O; Dab = NCC[C@H](N)C(=O)O; Abu = CC[C@H](N)C(=O)O; NH(CH2)4NH2 = NCCCCN*
measured.quantity: Ec: MIC Escherichia coli ATCC 25922

molecule="C[C@H](NC(=O)[C@H](CCN)NC(=O)[C@H](N)CCCCN)C(=O)NCC(=O)N[C@H](CCCN)C(=O)N1CCC[C@H]1C(=O)N[C@@H](Cc1cnc[nH]1)C(=O)N[C@@H](CCCCN)C(=O)N/C(=C\\CCNC(=N)N)C(=O)N[C@@H](CCCCN)C(=O)NCCCCN [14.22] (H-[dK][Dab]AG[dOrn]PHK[ΔZArg]K-{NH(CH2)4NH2})" result="− (>32 μg/mL)"
molecule="C=CC[C@H](NC(=O)[C@@H]1CCCN1C(=O)[C@@H](CCCN)NC(=O)CNC(=O)[C@H](C)NC(=O)[C@@H](NC(=O)[C@@H](N)CCCCN)[C@@H](O)CN)C(=O)N[C@@H](CCCCN)C(=O)N/C(=C\\CCNC(=N)N)C(=O)O [24.111] (H-K[Dab(3S-OH)]AG[dOrn]P[AllylGly]K[ΔZArg]-OH)" result="+ (≤32 μg/mL)"
molecule="C[C@H](NC(=O)[C@@H](NC(=O)[C@@H](N)CCCCN)[C@@H](O)CN)C(=O)NCC(=O)N[C@H](CCCN)C(=O)N1CCC[C@H]1C(=O)N[C@@H](Cc1ccccc1)C(=O)N[C@@H](CCCCN)C(=O)N/C(=C\\CCNC(=N)N)C(=O)O [24.134] (H-K[Dab(3S-OH)]AG[dOrn]PFK[ΔZArg]-OH)" result="+ (≤32 μg/mL)"
molecule="CC[C@H](NC(=O)[C@@H](NC(=O)[C@@H](N)CCCCN)[C@@H](O)CN)C(=O)NCC(=O)N[C@H](CCCN)C(=O)N1CCC[C@H]1C(=O)N[C@@H](Cc1cnc[nH]1)C(=O)N[C@@H](CCCCN)C(=O)N/C(=C\\CCNC(=N)N)C(=O)O [28.2] (H-K[Dab(3S-OH)][Abu]G[dOrn]PHK[ΔZArg]-OH)" result="− (>32 μg/mL)"

# molecule N=C(N)NCC/C=C(\NC(=O)[C@H](CCCCN)NC(=O)[C@H](Cc1cnc[nH]1)NC(=O)[C@@H]1CCCN1C(=O)[C@@H](CCCN)NC(=O)CNC(=O)[C@H](Cc1cnc[nH]1)NC(=O)[C@@H](NC(=O)[C@@H](N)CCCCN)[C@@H](O)CN)C(N)=O [214.1] (H-K[Dab(3S-OH)]HG[dOrn]PHK[ΔZArg]-NH2) ; its Ec: MIC Escherichia coli ATCC 25922 = + (≤32 μg/mL)
